Target: Androgen receptor (Homo sapiens)
Sequence (P10275 whole entry): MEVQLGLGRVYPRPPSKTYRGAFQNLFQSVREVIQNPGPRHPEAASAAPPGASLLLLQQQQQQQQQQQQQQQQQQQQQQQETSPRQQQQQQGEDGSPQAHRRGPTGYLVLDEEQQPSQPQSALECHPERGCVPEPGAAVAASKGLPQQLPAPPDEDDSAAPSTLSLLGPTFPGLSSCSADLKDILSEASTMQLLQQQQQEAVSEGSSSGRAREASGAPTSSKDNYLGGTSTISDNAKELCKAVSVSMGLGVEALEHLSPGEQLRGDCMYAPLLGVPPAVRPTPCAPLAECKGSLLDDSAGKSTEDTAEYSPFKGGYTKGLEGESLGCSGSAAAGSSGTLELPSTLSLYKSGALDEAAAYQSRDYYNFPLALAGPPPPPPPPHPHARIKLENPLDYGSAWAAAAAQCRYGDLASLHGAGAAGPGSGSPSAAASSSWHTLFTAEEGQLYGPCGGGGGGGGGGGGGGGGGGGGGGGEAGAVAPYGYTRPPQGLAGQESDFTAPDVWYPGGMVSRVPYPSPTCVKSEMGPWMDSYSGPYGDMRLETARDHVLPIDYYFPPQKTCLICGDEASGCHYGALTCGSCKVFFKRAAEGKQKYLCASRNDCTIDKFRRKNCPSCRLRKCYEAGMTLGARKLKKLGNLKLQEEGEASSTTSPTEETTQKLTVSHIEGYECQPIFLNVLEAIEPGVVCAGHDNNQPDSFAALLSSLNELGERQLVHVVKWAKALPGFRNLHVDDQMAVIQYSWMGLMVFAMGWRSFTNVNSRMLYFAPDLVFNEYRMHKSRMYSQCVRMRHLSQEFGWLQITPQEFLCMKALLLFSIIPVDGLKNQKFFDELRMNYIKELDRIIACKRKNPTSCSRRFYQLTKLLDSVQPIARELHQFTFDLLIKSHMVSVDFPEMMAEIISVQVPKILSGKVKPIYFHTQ
Consider the following molecules; for each one, report its EC50.
One number for each entry, in nM.

Here is how some molecules turned out for EC50.
CCCOCC1COc2cc3[nH]c(=O)cc(C(F)(F)F)c3cc2N1CC(F)(F)F (racemic)
4.2
O=c1cc(C(F)(F)F)c2cc3c(cc2[nH]1)OC[C@@H](CF)N3CC(F)(F)F
35
Cc1cccc([C@@H]2COc3cc4[nH]c(=O)cc(C(F)(F)F)c4cc3N2CC(F)(F)F)c1
19
O=c1cc(C(F)(F)F)c2cc3c(cc2[nH]1)OC[C@H](CF)N3CC(F)(F)F
3.8
O=c1cc(C(F)(F)F)c2cc3c(cc2[nH]1)OC[C@@H](CO)N3CC(F)(F)F
11
CSCC[C@@H]1COc2cc3[nH]c(=O)cc(C(F)(F)F)c3cc2N1CC(F)(F)F
23

Report EC50 for every entry below.
1. CCOCC1COc2cc3[nH]c(=O)cc(C(F)(F)F)c3cc2N1CC(F)(F)F (racemic)
2. Cc1ccc([C@@H]2COc3cc4[nH]c(=O)cc(C(F)(F)F)c4cc3N2CC(F)(F)F)cc1

1: 3.2; 2: 36
